Numbers sourced from patent US8003783B2.

- study.target: 17β-HSD1 (Homo sapiens)
- Construct: was measured in intact cell monolayers of T47D and MDA-MB-231 breast cancer cells respectively; endogenous in cells; host or cells: T-47D human breast cancer cells
- procedure.summary: 17β-HSD Type I activity in T-47D cells (E1→E2)
- Format: cell-based
Provide the recorded log10 of IC50 for the entries that follow.
Hello, just confirming the data are log10 of IC50 with units of nM.

stdin: Form field: reported log10 of IC50 of CC(NC(=O)C1CC2C3CCc4cc(O)ccc4C3CC[C@]2(C)[C@H]1O)c1ccccc1 (stereo partly drawn)
stdout: 2.91

stdin: Form field: reported log10 of IC50 of CCc1cc2c(cc1O)CCC1C2CC[C@]2(C)C(=O)C(CC(=O)NCc3cccnc3)CC12 (stereo partly drawn)
stdout: 1.43

stdin: Form field: reported log10 of IC50 of C[C@]12CCC3c4ccc(O)cc4CCC3C1C/C(=C\c1ccncc1)[C@@H]2O (stereo partly drawn)
stdout: 3.61

stdin: Form field: reported log10 of IC50 of CCOC(=O)CC1CC2C3CCc4cc(O)ccc4C3CC[C@]2(C)C1=O (stereo partly drawn)
stdout: 2.48

stdin: Form field: reported log10 of IC50 of C[C@]12CCC3c4ccc(O)cc4CCC3C1CC(C(=O)NCc1cccnc1)[C@@H]2O (stereo partly drawn)
stdout: 2.71

stdin: Form field: reported log10 of IC50 of CCOCC1CC2C3CCc4cc(O)ccc4C3CC[C@]2(C)C1=O (stereo partly drawn)
stdout: 2.51

* * *

- study.target: 17β-HSD2 (Homo sapiens)
- Construct: was measured in intact cell monolayers of T47D and MDA-MB-231 breast cancer cells respectively; endogenous in cells; host or cells: MDA-MB-231 human breast cancer cells
- procedure.summary: 17β-HSD Type II activity in MDA-MB-231 cells (E2→E1)
- Type: cell-based
- recorded.conditions: 10 μM; MDA-MB-231 cells, E2→E1; read-out: % inhibition of 17β-HSD2 @ 10 μM
reported.property: inhibition at 10 µM (%)
# number only, unit % dropped from output

stdin: Form field: reported inhibition at 10 µM of CC(NC(=O)C1CC2C3CCc4cc(O)ccc4C3CC[C@]2(C)[C@H]1O)c1ccccc1 (some centres unmarked)
stdout: 12

stdin: Form field: reported inhibition at 10 µM of C[C@]12CCC3c4ccc(OS(N)(=O)=O)cc4CCC3C1C/C(=C\c1ccccc1)C2=O (some centres unmarked)
stdout: 1

stdin: Form field: reported inhibition at 10 µM of CC(C)(C)/C=C1\CC2C3CCc4cc(O)ccc4C3CC[C@]2(C)[C@H]1O (some centres unmarked)
stdout: 27

stdin: Form field: reported inhibition at 10 µM of CNC(=O)CC1CC2C3CCc4cc(O)ccc4C3CC[C@]2(C)[C@H]1O (some centres unmarked)
stdout: 11

stdin: Form field: reported inhibition at 10 µM of C[C@]12CCC3c4ccc(O)cc4CCC3C1CC(Cc1ccccn1)[C@@H]2O (some centres unmarked)
stdout: 11

* * *

Provide the recorded inhibition at 10 µM for the entries that follow.
- study.target: 17β-HSD2 (Homo sapiens, UniProt P37059)
- Construct: was measured in intact cell monolayers of T47D and MDA-MB-231 breast cancer cells respectively; endogenous in cells; host or cells: MDA-MB-231 human breast cancer cells
- Sequence (P37059 1-387): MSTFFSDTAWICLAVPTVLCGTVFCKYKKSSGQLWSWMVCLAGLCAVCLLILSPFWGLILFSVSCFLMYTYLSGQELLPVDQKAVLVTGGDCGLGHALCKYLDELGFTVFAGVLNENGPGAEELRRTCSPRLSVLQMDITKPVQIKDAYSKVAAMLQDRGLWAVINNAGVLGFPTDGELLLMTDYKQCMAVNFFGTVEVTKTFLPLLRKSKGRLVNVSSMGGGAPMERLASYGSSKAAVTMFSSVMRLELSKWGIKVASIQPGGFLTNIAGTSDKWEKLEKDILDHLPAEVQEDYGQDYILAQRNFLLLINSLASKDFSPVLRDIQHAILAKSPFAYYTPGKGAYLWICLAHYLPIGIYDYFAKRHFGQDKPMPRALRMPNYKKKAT
- procedure.summary: 17β-HSD Type II activity in MDA-MB-231 cells (E2→E1)
- Format: cell-based
- recorded.conditions: MDA-MB-231, read-out: % inhibition of 17β-HSD2 @ 10 μM
# number only, unit % dropped from output

stdin: Request: inhibition at 10 µM, test system 17β-HSD2 (Homo sapiens, UniProt P37059), entry CC(C)Cn1ncc2c1[C@@]1(C)CCC3c4ccc(O)cc4CCC3C1C2 (stereo partly shown)
stdout: 44

stdin: Request: inhibition at 10 µM, test system 17β-HSD2 (Homo sapiens, UniProt P37059), entry CNC(=O)c1[nH]nc2c1CC1C3CCc4cc(O)ccc4C3CC[C@]21C (stereo partly shown)
stdout: 14

stdin: Request: inhibition at 10 µM, test system 17β-HSD2 (Homo sapiens, UniProt P37059), entry C[C@]12CCC3c4ccc(O)cc4CCC3C1Cc1c2n[nH]c1C(=O)NCc1ccccn1 (stereo partly shown)
stdout: 9

stdin: Request: inhibition at 10 µM, test system 17β-HSD2 (Homo sapiens, UniProt P37059), entry C[C@]12CCC3c4ccc(O)cc4CCC3C1CC(CC(=O)NCc1ccco1)C2=O (stereo partly shown)
stdout: 3

stdin: Request: inhibition at 10 µM, test system 17β-HSD2 (Homo sapiens, UniProt P37059), entry C[C@]12CCC3c4ccc(O)cc4CCC3C1Cc1c2n[nH]c1C(=O)NCC1CCCO1 (stereo partly shown)
stdout: -4

stdin: Request: inhibition at 10 µM, test system 17β-HSD2 (Homo sapiens, UniProt P37059), entry CN1CCN(C(=O)c2[nH]nc3c2CC2C4CCc5cc(O)ccc5C4CC[C@]32C)CC1 (stereo partly shown)
stdout: -0.7

stdin: Request: inhibition at 10 µM, test system 17β-HSD2 (Homo sapiens, UniProt P37059), entry C[C@]12CCC3c4ccc(O)cc4CCC3C1C/C(=C(/O)C(F)(F)F)C2=O (stereo partly shown)
stdout: -1.5
